Each entry below carries its reported Potency.
Target: Glucocorticoid receptor (Homo sapiens)
Test: GR-GFP Redistribution (AID 450); also: potency is read from the fitted curve at half-maximal effect
Settings: U2OS GR-GFP nuclear translocation, laser cytometry, 2 h
Calls of active or inactive are those of the source.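 The calls were made as follows: active = compounds whose dose series gives a full or clear partial fitted curve of increased nuclear translocation; inconclusive = weak partial curve or effect only at the top dose; inactive = no dose-dependent translocation response.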

// known answers, use as guide
CCOCCN1CCC(OC(C)=O)C(C)C1 (stereo not given); > 20.6 µM (inactive)
NCC[Se][Se]CCN; > 46 µM (inactive)
Cc1ccc(-n2c(O)c(C=NCCN3CCOCC3)c(=O)[nH]c2=O)cc1; > 20.6 µM (inactive)
COCCOC(=O)C1=C(N)Oc2c(c(=O)oc3ccccc23)[C@@]12C(=O)Nc1ccccc12; > 20.6 µM (inactive)
CCN(CC)CCCNC(=O)c1c(O)c2ccccc2n(Cc2ccccc2)c1=O; > 20.6 µM (inactive)

Input line: Lab note: need Potency with Glucocorticoid receptor (Homo sapiens) for entry CCCN1CCc2cccc3c2[C@@H]1Cc1ccc(O)c(O)c1-3 , please look it up.
Output line: > 46 µM (inactive)
